All values here come from ChEMBL document CHEMBL1221302.

# System: THP-1
# assayDetails: Antiinflammatory activity in human THP1 cells assessed as inhibition of LPS-induced TNFalpha production after 4 hrs by ELISA
# Assay type: functional, cell-based
# conditionSet: THP-1, 4 h
pIC50: −log10 of the molar value.
Quick reference: pIC50 of the listed items.
quantityKind: pIC50

molecule=CN1CCC[C@H]1CNC(=O)c1ccc(-c2cnc3ccc(NCC4CC4)nn23)cc1 targetdesc=THP-1 quantitykind=pIC50 observedvalue=5.89
molecule=O=C(NC[C@@H]1CCCCN1)c1ccc(-c2cnc3ccc(NCC4CC4)nn23)cc1 targetdesc=THP-1 quantitykind=pIC50 observedvalue=5.82
molecule="CC(N)CNC(=O)c1ccc(-c2cnc3ccc(NCC4CC4)nn23)cc1 (stereo not given)" targetdesc=THP-1 quantitykind=pIC50 observedvalue=5.82
molecule=O=C(NC[C@@H]1CCCN1)c1ccc(-c2cnc3ccc(NCc4ccccc4)nn23)cc1 targetdesc=THP-1 quantitykind=pIC50 observedvalue=5.43
molecule=CNc1ccc2ncc(-c3ccc(C(=O)NC[C@@H]4CCCN4)cc3)n2n1 targetdesc=THP-1 quantitykind=pIC50 observedvalue=4.54

###

# Test system: THP-1
# assayDetails: Antiinflammatory activity in human THP1 cells assessed as inhibition of LPS-induced TNFalpha production after 4 hrs by ELISA
# Format: functional, cell-based
# conditionSet: THP-1, 4 h
quantityKind: IC50 (µM)

structure=O=C(NC[C@@H]1CCCN1)c1ccc(-c2cnc3ccc(NCCCO)nn23)cc1 targetdesc=THP-1 quantitykind=IC50 resultcomparator=> observedvalue=30
structure=NC(=O)c1ccc(-c2cnc3ccc(NCc4ccc(Cl)c(Cl)c4)nn23)cc1 targetdesc=THP-1 quantitykind=IC50 resultcomparator== observedvalue=1.7
structure=O=C(NC[C@@H]1CCNC1)c1ccc(-c2cnc3ccc(NCc4ccc(Cl)c(Cl)c4)nn23)cc1 targetdesc=THP-1 quantitykind=IC50 resultcomparator== observedvalue=17
structure=CC(C)(N)CNC(=O)c1ccc(-c2cnc3ccc(NCc4ccc(Cl)c(Cl)c4)nn23)cc1 targetdesc=THP-1 quantitykind=IC50 resultcomparator== observedvalue=6.5
structure=O=C(c1ccc(-c2cnc3ccc(NCc4ccc(Cl)c(Cl)c4)nn23)cc1)N1CCC(N2CCCC2)CC1 targetdesc=THP-1 quantitykind=IC50 resultcomparator=> observedvalue=30

###

Measured IC50 of individual entries
# Tested on: THP-1
# assayDetails: Antiinflammatory activity in human THP1 cells assessed as inhibition of LPS-induced TNFalpha production after 4 hrs by ELISA
# Format: functional, cell-based
# conditionSet: THP-1, 4 h
quantityKind: IC50 (nM)

compound=O=C(NC[C@@H]1CCCN1)c1ccc(-c2cnc3ccc(NCC4CC4)nn23)cc1 unitofmeasurement=nM resultcomparator== observedvalue=690
compound="CC(CN(C)C)NC(=O)c1ccc(-c2cnc3ccc(NCC4CC4)nn23)cc1 (centres undefined)" unitofmeasurement=nM resultcomparator== observedvalue=2100
compound=CN(C)CCCNC(=O)c1ccc(-c2cnc3ccc(NCc4ccc(Cl)c(Cl)c4)nn23)cc1 unitofmeasurement=nM resultcomparator=> observedvalue=30000
compound=O=C(NC[C@@H]1CCCN1)c1ccc(-c2cnc3ccc(NCCO)nn23)cc1 unitofmeasurement=nM resultcomparator=> observedvalue=30000
compound=NCCNC(=O)c1ccc(-c2cnc3ccc(NCc4ccc(Cl)c(Cl)c4)nn23)cc1 unitofmeasurement=nM resultcomparator== observedvalue=2400
compound=CCN1CCC[C@H]1CNC(=O)c1ccc(-c2cnc3ccc(NCC4CC4)nn23)cc1 unitofmeasurement=nM resultcomparator== observedvalue=490
compound=O=C(NC[C@@H]1CCCN1)c1ccc(-c2cnc3ccc(NCCc4cnc[nH]4)nn23)cc1 unitofmeasurement=nM resultcomparator=> observedvalue=30000
compound=CN1CCN(C(=O)c2ccc(-c3cnc4ccc(NCc5ccc(Cl)c(Cl)c5)nn34)cc2)CC1 unitofmeasurement=nM resultcomparator== observedvalue=12000
compound=O=C(NC[C@@H]1CCCN1)c1ccc(-c2cnc3ccc(NCc4cccc(Cl)c4)nn23)cc1 unitofmeasurement=nM resultcomparator== observedvalue=2700

###

# targetDesc: Inhibitor of nuclear factor kappa-B kinase subunit beta (Homo sapiens)
# Sequence (O14920 whole entry): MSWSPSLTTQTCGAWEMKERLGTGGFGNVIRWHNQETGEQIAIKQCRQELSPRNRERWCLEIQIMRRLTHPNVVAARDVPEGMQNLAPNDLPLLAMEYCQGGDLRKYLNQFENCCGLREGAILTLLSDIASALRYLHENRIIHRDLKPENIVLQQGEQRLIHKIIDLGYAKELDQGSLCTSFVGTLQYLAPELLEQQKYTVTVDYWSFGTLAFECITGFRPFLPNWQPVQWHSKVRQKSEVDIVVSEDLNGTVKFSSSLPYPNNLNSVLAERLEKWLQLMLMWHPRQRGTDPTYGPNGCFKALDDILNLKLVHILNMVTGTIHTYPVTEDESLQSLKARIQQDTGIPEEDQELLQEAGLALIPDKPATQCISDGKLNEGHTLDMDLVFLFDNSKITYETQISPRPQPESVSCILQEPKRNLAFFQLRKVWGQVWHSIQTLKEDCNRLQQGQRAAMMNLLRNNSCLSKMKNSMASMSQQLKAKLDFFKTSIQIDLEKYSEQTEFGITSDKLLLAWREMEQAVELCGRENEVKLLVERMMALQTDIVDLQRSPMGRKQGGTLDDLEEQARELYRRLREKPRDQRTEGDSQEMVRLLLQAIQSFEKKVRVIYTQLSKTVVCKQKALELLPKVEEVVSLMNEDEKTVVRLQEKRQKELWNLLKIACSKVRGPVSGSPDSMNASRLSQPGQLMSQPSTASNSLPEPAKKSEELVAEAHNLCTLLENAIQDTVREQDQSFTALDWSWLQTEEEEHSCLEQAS
# assayDetails: Inhibition of purified His-tagged IKK-beta after 15 mins
quantityKind: IC50 (nM)

structure=O=C(c1ccc(-c2cnc3ccc(NCC4CC4)nn23)cc1)N1CCC[C@H]1CN1CCCC1 quantitykind=IC50 resultcomparator== observedvalue=5100
structure=O=C(NC[C@@H]1CCCN1)c1ccc(-c2cnc3ccc(NCC4CC4)nn23)cc1 quantitykind=IC50 resultcomparator== observedvalue=55
structure=CN(C)CCNC(=O)c1ccc(-c2cnc3ccc(NCC4CC4)nn23)cc1 quantitykind=IC50 resultcomparator== observedvalue=200
structure=O=C(NC[C@@H]1CCCN1)c1ccc(-c2cnc3ccc(N4CCC(O)CC4)nn23)cc1 quantitykind=IC50 resultcomparator=> observedvalue=30000
structure=O=C(NC[C@@H]1CCCN1)c1ccc(-c2cnc3ccc(N4CCOCC4)nn23)cc1 quantitykind=IC50 resultcomparator=> observedvalue=30000
structure=O=C(c1ccc(-c2cnc3ccc(NCc4ccc(Cl)c(Cl)c4)nn23)cc1)N1CCC(N2CCCC2)CC1 quantitykind=IC50 resultcomparator== observedvalue=1400
structure=O=C(NC[C@@H]1CCCN1)c1ccc(-c2cnc3ccc(NCCc4cnc[nH]4)nn23)cc1 quantitykind=IC50 resultcomparator== observedvalue=3000
structure=O=C(NCCN1CCOCC1)c1ccc(-c2cnc3ccc(NCc4ccc(Cl)c(Cl)c4)nn23)cc1 quantitykind=IC50 resultcomparator=> observedvalue=30000
structure=O=C(NCCN1CCCC1)c1ccc(-c2cnc3ccc(NCc4ccc(Cl)c(Cl)c4)nn23)cc1 quantitykind=IC50 resultcomparator== observedvalue=590

###

# targetDesc: Inhibitor of nuclear factor kappa-B kinase subunit beta (Homo sapiens)
# assayDetails: Inhibition of purified His-tagged IKK-beta after 15 mins
pIC50: −log10 of the molar value.
Yes means recorded pIC50 is 6 or above; No means it is below 6.

compound=O=C(NC[C@H]1CCCN1)c1ccc(-c2cnc3ccc(NCC4CC4)nn23)cc1 targetdesc="Inhibitor of nuclear factor kappa-B kinase subunit beta (Homo sapiens)" labelclass=Yes
compound=O=C(NC[C@@H]1CCCN1)c1ccc(-c2cnc3ccc(NCCCn4ccnc4)nn23)cc1 targetdesc="Inhibitor of nuclear factor kappa-B kinase subunit beta (Homo sapiens)" labelclass=Yes
compound=CN1CCC[C@H]1CNC(=O)c1ccc(-c2cnc3ccc(NCC4CC4)nn23)cc1 targetdesc="Inhibitor of nuclear factor kappa-B kinase subunit beta (Homo sapiens)" labelclass=Yes
compound=CC(C)Nc1ccc2ncc(-c3ccc(C(=O)NC[C@@H]4CCCN4)cc3)n2n1 targetdesc="Inhibitor of nuclear factor kappa-B kinase subunit beta (Homo sapiens)" labelclass=Yes
compound=O=C(NC[C@@H]1CCCN1)c1ccc(-c2cnc3ccc(NCc4cccc(Cl)c4)nn23)cc1 targetdesc="Inhibitor of nuclear factor kappa-B kinase subunit beta (Homo sapiens)" labelclass=Yes
compound=O=C(c1ccc(-c2cnc3ccc(NCC4CC4)nn23)cc1)N1CCC[C@@H]1CN1CCCC1 targetdesc="Inhibitor of nuclear factor kappa-B kinase subunit beta (Homo sapiens)" labelclass=Yes
compound=O=C(NC[C@@H]1CCNC1)c1ccc(-c2cnc3ccc(NCc4ccc(Cl)c(Cl)c4)nn23)cc1 targetdesc="Inhibitor of nuclear factor kappa-B kinase subunit beta (Homo sapiens)" labelclass=No
compound=O=C(NC[C@@H]1CCCN1)c1ccc(-c2cnc3ccc(NCc4ccc(Cl)c(Cl)c4)nn23)cc1 targetdesc="Inhibitor of nuclear factor kappa-B kinase subunit beta (Homo sapiens)" labelclass=Yes
compound="CC(N)CNC(=O)c1ccc(-c2cnc3ccc(NCC4CC4)nn23)cc1 (stereo not given)" targetdesc="Inhibitor of nuclear factor kappa-B kinase subunit beta (Homo sapiens)" labelclass=Yes
compound=CCNC(=O)c1ccc(-c2cnc3ccc(NCc4ccc(Cl)c(Cl)c4)nn23)cc1 targetdesc="Inhibitor of nuclear factor kappa-B kinase subunit beta (Homo sapiens)" labelclass=No

###

Entries and their IC50
# targetDesc: Inhibitor of nuclear factor kappa-B kinase subunit alpha (Homo sapiens, UniProt O15111)
# Sequence (O15111 whole entry): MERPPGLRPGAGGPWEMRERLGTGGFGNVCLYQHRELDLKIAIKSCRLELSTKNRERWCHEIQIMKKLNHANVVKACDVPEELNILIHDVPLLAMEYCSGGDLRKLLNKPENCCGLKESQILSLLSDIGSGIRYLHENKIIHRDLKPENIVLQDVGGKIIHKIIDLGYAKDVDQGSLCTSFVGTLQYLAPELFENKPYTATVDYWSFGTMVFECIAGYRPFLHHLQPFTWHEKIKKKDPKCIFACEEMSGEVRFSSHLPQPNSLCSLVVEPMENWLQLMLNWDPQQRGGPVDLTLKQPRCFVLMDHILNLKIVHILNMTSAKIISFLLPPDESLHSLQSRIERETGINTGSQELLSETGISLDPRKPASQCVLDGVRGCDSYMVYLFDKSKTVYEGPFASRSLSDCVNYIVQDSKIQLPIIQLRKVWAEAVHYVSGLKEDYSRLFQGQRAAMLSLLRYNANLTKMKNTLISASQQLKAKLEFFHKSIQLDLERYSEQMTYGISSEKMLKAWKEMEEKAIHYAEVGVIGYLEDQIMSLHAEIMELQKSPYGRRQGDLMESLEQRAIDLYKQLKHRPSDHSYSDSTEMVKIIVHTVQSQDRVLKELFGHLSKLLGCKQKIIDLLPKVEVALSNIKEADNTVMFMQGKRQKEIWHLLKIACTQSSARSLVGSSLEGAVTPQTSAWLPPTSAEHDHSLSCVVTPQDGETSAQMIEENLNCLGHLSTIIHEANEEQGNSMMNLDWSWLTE
# assayDetails: Inhibition of recombinant IKKalpha after 15 mins
quantityKind: IC50 (µM)

structure=CN(C)CCNC(=O)c1ccc(-c2cnc3ccc(NCC4CC4)nn23)cc1 resultcomparator=> observedvalue=100
structure=O=C(NC[C@@H]1CCCN1)c1ccc(-c2cnc3ccc(NCc4cccc(Cl)c4)nn23)cc1 resultcomparator=> observedvalue=4
structure=O=C(NC[C@@H]1CCCN1)c1ccc(-c2cnc3ccc(NCC4CC4)nn23)cc1 resultcomparator== observedvalue=40
structure=O=C(NCCN1CCCC1)c1ccc(-c2cnc3ccc(NCc4ccc(Cl)c(Cl)c4)nn23)cc1 resultcomparator== observedvalue=4.6
structure=O=C(NC[C@@H]1CCCN1)c1ccc(-c2cnc3ccc(NCc4ccc(Cl)c(Cl)c4)nn23)cc1 resultcomparator== observedvalue=2.2

###

List of IC50 values.
# System: THP-1
# assayDetails: Antiinflammatory activity in human THP1 cells assessed as inhibition of LPS-induced TNFalpha production after 4 hrs by ELISA
# Format: functional, cell-based
# conditionSet: THP-1, 4 h
quantityKind: IC50 (µM)

compound=CN(C)CCNC(=O)c1ccc(-c2cnc3ccc(NCC4CC4)nn23)cc1 targetdesc=THP-1 quantitykind=IC50 resultcomparator== observedvalue=0.69
compound="O=C(NC1CCNC1)c1ccc(-c2cnc3ccc(NCc4ccc(Cl)c(Cl)c4)nn23)cc1 (centres undefined)" targetdesc=THP-1 quantitykind=IC50 resultcomparator== observedvalue=6.5
compound=O=C(NC[C@@H]1CCCN1)c1ccc(-c2cnc3ccc(NCCCn4ccnc4)nn23)cc1 targetdesc=THP-1 quantitykind=IC50 resultcomparator=> observedvalue=30
compound=CC(=O)NCCNc1ccc2ncc(-c3ccc(C(=O)NC[C@@H]4CCCN4)cc3)n2n1 targetdesc=THP-1 quantitykind=IC50 resultcomparator=> observedvalue=30
compound=O=C(NCc1ccccn1)c1ccc(-c2cnc3ccc(NCc4ccc(Cl)c(Cl)c4)nn23)cc1 targetdesc=THP-1 quantitykind=IC50 resultcomparator=> observedvalue=30
compound=CCN(CC)CCNC(=O)c1ccc(-c2cnc3ccc(NCC4CC4)nn23)cc1 targetdesc=THP-1 quantitykind=IC50 resultcomparator== observedvalue=1.2
compound=O=C(NC[C@H]1CCCN1)c1ccc(-c2cnc3ccc(NCC4CC4)nn23)cc1 targetdesc=THP-1 quantitykind=IC50 resultcomparator== observedvalue=1.6
compound=CC(C)Nc1ccc2ncc(-c3ccc(C(=O)NC[C@@H]4CCCN4)cc3)n2n1 targetdesc=THP-1 quantitykind=IC50 resultcomparator== observedvalue=1.7
compound=O=C(NC1CCNCC1)c1ccc(-c2cnc3ccc(NCc4ccc(Cl)c(Cl)c4)nn23)cc1 targetdesc=THP-1 quantitykind=IC50 resultcomparator== observedvalue=4.4
